System: Bacillus subtilis
Experiment notes: cleaved RNA product abundance (RNA/gDNA barcode ratio) relative to median wild-type variant (ratio to wild type); higher = more accumulation of the downstream cleavage product
Conditions: experiment (reporter, strain, medium): exp 2b: truncated aprE reporter, strain BJT200; cleavage site: cggR-gapA (positions -7 to +36 mutated)
What cleaved RNA product abundance was measured for each of the following?

cleaved RNA product abundance reported for this sequence ACAGACGAAGGAGCCGCAAAAAACTTATTAAGGGATGATTAATCCCTCAATATAAATATCTCTCACTTATTTAAA : 0.325

Lookup result for ACAGACGAAGGAGCCGCAAAGAAGTTATTAAGGGATGAATAATCCAACAATATAAATATCTCTCACTTATTTAAA ; measured cleaved RNA product abundance: 0.184

Record summary for ACAGACGAAGGAGCCGCAAAGAAGTAAATAAGGGATGAATAATCCCTCAATATAAATATCTCTCACTTATTTAAA : reported cleaved RNA product abundance = 0.151

Value of measured cleaved RNA product abundance for the entry ACAGACGAAGGAGCCGCAAAGAAGTTATTAAAGGATGAATAGTCCCTCAATATAAATATCTCTCACTTATTTAAA : 0.124

ACAGACGAAGGAGCCGCAAAGAATTTATTAAGCGATGAATAATCCCTCAATATAAATATCTCTCACTTATTTAAA yielded cleaved RNA product abundance of 0.116

Measured cleaved RNA product abundance of ACAGACGAAGGAGCCGCAAAGAAGTTATTAAGGCATAAATAATCCCTCAATATAAATATCTCTCACTTATTTAAA : 0.0865

Data point: ACAGACGAAGGAGCCGCAAAGAAGTTATTAAGGGATGAATAATCCCTCAATATAAATATCTCTCACTTATTAAAG ; cleaved RNA product abundance = 0.94

Data origin: the supplement of paper PMC11780869
